pKd listing for selected binders.
Study System: T1, human KDR-Fc fusion (R&D Systems #357-KD-050) (human, UniProt P35968 20-764)
T1 construct: bought
T1 sequence (P35968 20-764): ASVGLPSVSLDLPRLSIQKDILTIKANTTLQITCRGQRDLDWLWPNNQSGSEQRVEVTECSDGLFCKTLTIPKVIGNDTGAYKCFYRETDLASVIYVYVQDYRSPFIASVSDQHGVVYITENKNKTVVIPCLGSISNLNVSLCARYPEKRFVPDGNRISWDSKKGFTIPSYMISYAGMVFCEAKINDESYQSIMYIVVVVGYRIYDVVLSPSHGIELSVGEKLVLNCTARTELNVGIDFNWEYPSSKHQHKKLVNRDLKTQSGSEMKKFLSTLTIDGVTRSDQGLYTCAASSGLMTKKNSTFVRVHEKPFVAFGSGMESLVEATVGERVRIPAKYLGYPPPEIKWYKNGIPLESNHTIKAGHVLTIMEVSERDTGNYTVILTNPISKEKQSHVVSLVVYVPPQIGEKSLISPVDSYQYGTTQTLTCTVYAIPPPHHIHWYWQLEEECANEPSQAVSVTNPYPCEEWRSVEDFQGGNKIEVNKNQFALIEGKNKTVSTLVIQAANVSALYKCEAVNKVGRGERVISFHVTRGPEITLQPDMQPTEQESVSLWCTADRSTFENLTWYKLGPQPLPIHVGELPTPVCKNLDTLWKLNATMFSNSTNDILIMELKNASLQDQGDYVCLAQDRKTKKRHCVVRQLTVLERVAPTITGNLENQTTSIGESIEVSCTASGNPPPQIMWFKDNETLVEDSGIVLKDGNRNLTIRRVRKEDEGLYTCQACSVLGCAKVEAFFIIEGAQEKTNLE
Protocol Summary: fluorescence anisotropy, fluorescein-labeled peptide
Bridge positions count the residues as written; N and C are the ends.
// pKd is dimensionless: -log10 of concentration (M)

Binder | Quantity Measured | Test Result
Ac-AGQAWIECYAEDGYCWPRSWGTGGGK-NH2 (disulfide 8-15 (inferred); not fully specified) [SEQ ID NO:283] | pKd | 5.85
Ac-AGRNWCEEDWYYCFITGTGGGK-NH2 (disulfide 6-13 (inferred); not fully specified) [SEQ ID NO:279] | pKd | 6.72
Ac-GDDHMCRSPDYQDHVFCMYWDPGGGK-NH2 (disulfide 6-17 (inferred); not fully specified) [SEQ ID NO:295] | pKd | 6.32
Ac-AQEPEGYAYWEVITLYHEEDGDGGK-NH2 (not fully specified) [SEQ ID NO:305] | pKd | 6.57

We now examine a further binder.
Which pKd is reported for this binder? Ac-AGANWCEEDWYYCWITGTGGGK-NH2 (disulfide 6-13 (inferred); not fully specified) [SEQ ID NO:272]
7.01

src = patent EP2014310A2
